Data provenance is patent US7947690B2.

# System: MIN6B1 cell
# Protocol Summary: Assay for promoting activity on insulin secretion
# Type: cell-based, mouse
# Condition Context: Mus musculus, 22 min, 10 μM test compound in KRB-HEPES with 16.8 mM glucose, 37° C., relative value, insulin concentration for only DMSO = 100%, read-out: Promotion activity on insulin secretion, %
Give measured activity at 10 µM for each item. Keep answers brief.
Reply numerically in %, unit not repeated.

QUERY: Look at this molecule and give its reported activity at 10 µM. O=C(O)CCCC1CCN(c2nc(-c3cc(F)c(Cl)cc3F)nc3c2CS(=O)(=O)C3)CC1 [Example 291]
RESULT: 269

QUERY: And the next one, NC(=O)CCC1CCN(c2nc(-c3cc(F)c(Cl)cc3F)nc3c2CS(=O)(=O)C3)CC1 [Example 283] ?
RESULT: 375

QUERY: // query: COc1ccc(Cl)cc1C(=O)NCCc1ccc(S(=O)(=O)NC(=O)NC2CCCCC2)cc1 [Glibenclamide, glibenclamide, reference compound]
RESULT: 122

QUERY: Now consider O=C(O)CCCC1CCN(c2nc(C3CCCC3)nc3c2CS(=O)(=O)C3)CC1 [Example 407] and answer again.
RESULT: 325
